Origin of values: ChEMBL document CHEMBL2086320

- assay_name: Selectivity ratio of IC50 for human HMEpC cells to IC50 for human SKBR3 cells
- Format: ADME, cell-based, SK-BR-3
- settings: HMEpC cells (normal) versus SKBR3 cells, read-out: Ratio IC50
measured_parameter: selectivity ratio
The reply should be a number, written without any unit.

Documented selectivity ratio of O=C(Oc1ccc(-c2ccc(OC(=O)c3cc(O)c(O)c(O)c3)cc2)cc1)c1cc(O)c(O)c(O)c1 : 8

====

- System: MCF7
- assay_name: Cytotoxicity against human MCF7 cells
- Format: functional, cell-based
measured_parameter: IC50 (µM)
Numbers only here, please. The scale is µM.

# O=C(Oc1ccc(-c2ccc(OC(=O)c3cc(O)c(O)c(O)c3)cc2)cc1)c1cc(O)c(O)c(O)c1 with MCF7: IC50 is 3.8

====

- System: SK-BR-3
- assay_name: Cytotoxicity against human SKBR3 cells after 48 hrs by MTT assay
- Assay type: functional, cell-based
- settings: SK-BR-3, 48 h
Field: pIC50. Provide a value for each of the molecules that follow.
Bear in mind: pIC50 is minus log10 of a mol/L concentration; give just that figure.

Documented pIC50 of Cc1cc(OC(=O)c2cc(O)c(O)c(O)c2)ccc1OC(=O)c1cc(O)c(O)c(O)c1 : 4.64

Documented pIC50 of COC(=O)c1cc(OC(=O)c2cc(O)c(O)c(O)c2)ccc1OC(=O)c1cc(O)c(O)c(O)c1 : 4.44

Documented pIC50 of O=C(Oc1cccc2c(OC(=O)c3cc(O)c(O)c(O)c3)cccc12)c1cc(O)c(O)c(O)c1 : 4.59

Documented pIC50 of O=C(Oc1ccc(OC(=O)c2cc(O)c(O)c(O)c2)c2ccccc12)c1cc(O)c(O)c(O)c1 : 4.54

Documented pIC50 of O=C(Oc1cc2c(c(OC(=O)c3cc(O)c(O)c(O)c3)c1)CCCC2)c1cc(O)c(O)c(O)c1 : 4.51

Documented pIC50 of O=C(O[C@@H]1Cc2c(O)cc(O)cc2O[C@@H]1c1cc(O)c(O)c(O)c1)c1cc(O)c(O)c(O)c1 [EPIGALOCATECHIN GALLATE] : 3.83

Documented pIC50 of O=C(Oc1ccccc1OC(=O)c1cc(O)c(O)c(O)c1)c1cc(O)c(O)c(O)c1 : 3.90

====

- assay_name: Selectivity ratio of IC50 for human HL7702 cells to IC50 for human SKBR3 cells
- Assay type: ADME, cell-based
- settings: HL7702 cells (normal) versus SKBR3 cells, read-out: Ratio IC50
measured_parameter: selectivity ratio

Documented selectivity ratio of O=C(Oc1ccc(-c2ccc(OC(=O)c3cc(O)c(O)c(O)c3)cc2)cc1)c1cc(O)c(O)c(O)c1 : 10

====

- Test system: SK-BR-3
- assay_name: Cytotoxicity against human SKBR3 cells
- Type: functional, cell-based
measured_parameter: IC50 (µM)
Numbers only here, please. The scale is µM.

Documented IC50 of O=C(Oc1ccc(-c2ccc(OC(=O)c3cc(O)c(O)c(O)c3)cc2)cc1)c1cc(O)c(O)c(O)c1 : 4

====

- System: SK-BR-3
- assay_name: Cytotoxicity against human SKBR3 cells after 48 hrs by MTT assay
- Type: functional, cell-based
- settings: SK-BR-3, 48 h
measured_parameter: pIC50
Bear in mind: pIC50 is minus log10 of a mol/L concentration; give just that figure.

# O=C(Oc1cc2ccccc2cc1OC(=O)c1cc(O)c(O)c(O)c1)c1cc(O)c(O)c(O)c1 with SK-BR-3: pIC50 is 4.12

# O=C(Oc1ccc2c(OC(=O)c3cc(O)c(O)c(O)c3)cccc2c1)c1cc(O)c(O)c(O)c1 with SK-BR-3: pIC50 is 4.41

# O=C(Oc1ccc(-c2ccc(OC(=O)c3cc(O)c(O)c(O)c3)cc2)cc1)c1cc(O)c(O)c(O)c1 with SK-BR-3: pIC50 is 5.40

# O=C(Oc1ccc2ccccc2c1OC(=O)c1cc(O)c(O)c(O)c1)c1cc(O)c(O)c(O)c1 with SK-BR-3: pIC50 is 4.13

# O=C(Oc1cccc2cccc(OC(=O)c3cc(O)c(O)c(O)c3)c12)c1cc(O)c(O)c(O)c1 with SK-BR-3: pIC50 is 4.11

# O=C(Oc1ccc(OC(=O)c2cc(O)c(O)c(O)c2)c(-c2ccccc2)c1)c1cc(O)c(O)c(O)c1 with SK-BR-3: pIC50 is 4.77

# O=C(Oc1ccc(OC(=O)c2cc(O)c(O)c(O)c2)c2c1CCCC2)c1cc(O)c(O)c(O)c1 with SK-BR-3: pIC50 is 4.39

# O=C(Oc1ccc2ccc(OC(=O)c3cc(O)c(O)c(O)c3)cc2c1)c1cc(O)c(O)c(O)c1 with SK-BR-3: pIC50 is 4.59

# COc1cc(OC(=O)c2cc(O)c(O)c(O)c2)ccc1OC(=O)c1cc(O)c(O)c(O)c1 with SK-BR-3: pIC50 is 5.10

# O=C(O[C@H]1CC[C@@H](OC(=O)c2cc(O)c(O)c(O)c2)c2ccccc21)c1cc(O)c(O)c(O)c1 with SK-BR-3: pIC50 is 4.66

# O=C(Oc1cc(OC(=O)c2cc(O)c(O)c(O)c2)c2ccccc2c1)c1cc(O)c(O)c(O)c1 with SK-BR-3: pIC50 is 4.68

# COC(=O)c1cc(OC(=O)c2cc(O)c(O)c(O)c2)c2ccccc2c1OC(=O)c1cc(O)c(O)c(O)c1 with SK-BR-3: pIC50 is 4.55

# O=C(Oc1ccc2cc(OC(=O)c3cc(O)c(O)c(O)c3)ccc2c1)c1cc(O)c(O)c(O)c1 with SK-BR-3: pIC50 is 5.30

# O=C(Oc1cccc(OC(=O)c2cc(O)c(O)c(O)c2)c1)c1cc(O)c(O)c(O)c1 with SK-BR-3: pIC50 is 4.38

# O=C(Oc1ccc2cccc(OC(=O)c3cc(O)c(O)c(O)c3)c2c1)c1cc(O)c(O)c(O)c1 with SK-BR-3: pIC50 is 4.33

# O=C(O[C@H]1CC[C@H](OC(=O)c2cc(O)c(O)c(O)c2)c2ccccc21)c1cc(O)c(O)c(O)c1 with SK-BR-3: pIC50 is 4.38

# O=C(Oc1ccc(OC(=O)c2cc(O)c(O)c(O)c2)cc1)c1cc(O)c(O)c(O)c1 with SK-BR-3: pIC50 is 4.60

====

- System: MDA-MB-231
- assay_name: Cytotoxicity against human MDA-MB-231 cells
- Format: functional, cell-based
measured_parameter: IC50 (µM)
Numbers only here, please. The scale is µM.

Documented IC50 of O=C(Oc1ccc(-c2ccc(OC(=O)c3cc(O)c(O)c(O)c3)cc2)cc1)c1cc(O)c(O)c(O)c1 : 5
